pIC50: −log10 of the molar value.
These molecules were tested on steroid 5α-reductase enzyme (Homo sapiens); pIC50 is the recorded read-out.
Sequence (P31213 whole entry): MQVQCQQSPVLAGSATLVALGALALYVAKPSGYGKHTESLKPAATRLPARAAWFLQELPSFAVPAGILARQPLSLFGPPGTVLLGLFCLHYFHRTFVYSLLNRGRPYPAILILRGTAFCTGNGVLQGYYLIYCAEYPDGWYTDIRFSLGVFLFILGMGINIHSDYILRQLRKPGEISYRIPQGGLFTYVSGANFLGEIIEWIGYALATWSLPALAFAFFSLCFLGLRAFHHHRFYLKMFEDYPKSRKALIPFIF
MEASUREMENT LABEL: pIC50

{"MOLECULE": "C[C@]12C=CC(=O)N[C@@H]1CC[C@@H]1[C@@H]2CC[C@]2(C)[C@@H](C(=O)N3CCCCCC3)CC[C@@H]12", "pIC50": 7.88}

a. CC(C)(C)NC(=O)[C@H]1CC[C@H]2[C@@H]3CC[C@H]4NC(=O)C=C[C@]4(C)[C@H]3CC[C@]12C [MK-906, reference compound]
b. C[C@]12C=CC(=O)N[C@@H]1CC[C@@H]1[C@@H]2CC[C@]2(C)[C@@H](C(=O)N3CCCCCCC3)CC[C@@H]12
Incoming: Dear colleague, could you let me know whether a or b has the lower recorded pIC50? Thanks. Kindly state the label of the option you pick.
Outgoing: a
